Measured Target: soluble guanylate cyclase (sGC) (Rattus norvegicus, UniProt P20595)
Construct: made in house
Sequence (P20595 whole entry): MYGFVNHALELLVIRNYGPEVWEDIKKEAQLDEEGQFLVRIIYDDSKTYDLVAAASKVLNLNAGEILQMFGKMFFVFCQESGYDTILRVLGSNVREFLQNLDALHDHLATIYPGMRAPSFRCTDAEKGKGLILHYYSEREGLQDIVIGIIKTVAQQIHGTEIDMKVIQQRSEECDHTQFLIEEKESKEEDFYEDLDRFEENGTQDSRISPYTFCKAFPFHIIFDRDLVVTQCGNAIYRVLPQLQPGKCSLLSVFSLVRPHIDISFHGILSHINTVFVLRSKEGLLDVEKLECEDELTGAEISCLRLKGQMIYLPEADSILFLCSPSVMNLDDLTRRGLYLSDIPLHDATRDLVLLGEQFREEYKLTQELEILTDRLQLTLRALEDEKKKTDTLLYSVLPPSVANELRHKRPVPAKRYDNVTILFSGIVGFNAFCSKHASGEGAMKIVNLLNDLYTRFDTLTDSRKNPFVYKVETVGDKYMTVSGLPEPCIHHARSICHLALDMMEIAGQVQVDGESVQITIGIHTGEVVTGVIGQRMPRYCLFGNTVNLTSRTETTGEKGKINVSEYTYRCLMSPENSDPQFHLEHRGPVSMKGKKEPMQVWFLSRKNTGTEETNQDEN
Sequence (P19686 whole entry partner): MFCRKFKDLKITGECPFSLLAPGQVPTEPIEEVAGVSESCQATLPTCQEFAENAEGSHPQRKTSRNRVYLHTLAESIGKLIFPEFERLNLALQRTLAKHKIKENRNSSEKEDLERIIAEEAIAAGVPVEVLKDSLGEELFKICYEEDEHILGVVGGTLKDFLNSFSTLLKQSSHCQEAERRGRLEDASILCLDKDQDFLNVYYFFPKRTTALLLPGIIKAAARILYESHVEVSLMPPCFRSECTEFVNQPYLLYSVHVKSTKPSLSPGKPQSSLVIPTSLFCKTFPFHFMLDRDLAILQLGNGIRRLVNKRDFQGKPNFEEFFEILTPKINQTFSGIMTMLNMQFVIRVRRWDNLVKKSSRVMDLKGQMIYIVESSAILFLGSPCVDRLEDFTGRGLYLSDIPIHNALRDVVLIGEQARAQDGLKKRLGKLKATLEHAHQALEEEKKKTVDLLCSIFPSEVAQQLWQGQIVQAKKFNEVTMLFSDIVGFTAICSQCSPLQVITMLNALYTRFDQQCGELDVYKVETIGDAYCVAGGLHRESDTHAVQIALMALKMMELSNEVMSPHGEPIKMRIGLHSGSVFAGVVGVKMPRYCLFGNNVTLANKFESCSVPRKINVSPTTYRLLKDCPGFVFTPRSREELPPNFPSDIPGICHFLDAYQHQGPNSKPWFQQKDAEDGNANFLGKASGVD
Method Summary: Stimulation of sGC enzyme activity (PPi detection, luciferase)
Assay type: biochemical
Label t when MEC (minimum effective concentration), activating action at the sGC enzyme in vitro < 60 nM; otherwise f.

Prompt: # TODO verify MEC (minimum effective concentration), activating action at the sGC enzyme in vitro < 60 nM strictly for this molecule: N#Cc1cccc(COc2ccccc2CCN(CCCCC(=O)O)C2CCCc3cc(C(=O)O)ccc32)c1 (stereo not drawn)
Response: f

Prompt: Below 60 nM on MEC (minimum effective concentration), activating action at the sGC enzyme in vitro? Entry CC(C)(C)c1ccc(COc2ccccc2CCN(CCCCC(=O)O)C2CCCc3cc(C(=O)O)ccc32)cc1 (single isomer, unassigned; enantiomer 2) [Example 3]
Response: t

Prompt: Is the reported MEC (minimum effective concentration), activating action at the sGC enzyme in vitro for Cc1cc(COc2ccccc2CCN(CCCCC(=O)O)C2CCCc3cc(C(=O)O)ccc32)n(C)n1 (stereo not drawn) strictly below 60 nM?
Response: f

Prompt: State whether 60 nM exceeds MEC (minimum effective concentration), activating action at the sGC enzyme in vitro recorded for CC(C)(C)c1ccc(COc2ccccc2CCN(CCCCC(=O)O)C2CCCc3cc(C(=O)O)ccc32)cc1 (single isomer, unassigned; enantiomer 1) [Example 2] .
Response: t

Prompt: Does the reported MEC (minimum effective concentration), activating action at the sGC enzyme in vitro of CC1CCC(=O)N1CCCCOc1ccccc1CCN(CCCCC(=O)O)C1CCCc2cc(C(=O)O)ccc21 (stereo not drawn) stay below 60 nM?
Response: t

Prompt: Please let me know if O=C(O)CCCCN(CCc1ccccc1OCCCCN1CCCC1=O)C1CCCc2cc(C(=O)O)ccc21 (stereo not drawn) shows MEC (minimum effective concentration), activating action at the sGC enzyme in vitro below 60 nM.
Response: f

Prompt: Decide: MEC (minimum effective concentration), activating action at the sGC enzyme in vitro of O=C(O)CCCCN(CCc1ccccc1OCc1ccc(CCc2ccccc2)cc1)C1CCCc2cc(C(=O)O)ccc21 (stereo not drawn) strictly below 60 nM?
Response: t

Prompt: Is MEC (minimum effective concentration), activating action at the sGC enzyme in vitro strictly under 60 nM for the entry CC(C)(C)c1ccc(COc2ccccc2CCN(CCCCC(=O)O)C2CCc3cc(C(=O)O)ccc32)cc1 (stereo not drawn) ?
Response: t

Prompt: Consider the molecule CC(C)(C)c1ccc(COc2ccccc2CCN(CCCCC(=O)O)C2CCCc3cc(C(=O)O)ccc32)cc1 (racemic) [Example 1] . Is its MEC (minimum effective concentration), activating action at the sGC enzyme in vitro strictly less than 60 nM?
Response: t
